target: Glycogen synthase kinase-3 alpha (Homo sapiens) (UniProt P49840); test: concentration-response blocking of human GSK3A – biochemical, luminescence, cell-free homogeneous, retest, dose response (AID 463203); details: GSK-3 alpha enzyme, ADP-Glo luminescence, 60 min
Sequence (P49840 whole entry, looked up): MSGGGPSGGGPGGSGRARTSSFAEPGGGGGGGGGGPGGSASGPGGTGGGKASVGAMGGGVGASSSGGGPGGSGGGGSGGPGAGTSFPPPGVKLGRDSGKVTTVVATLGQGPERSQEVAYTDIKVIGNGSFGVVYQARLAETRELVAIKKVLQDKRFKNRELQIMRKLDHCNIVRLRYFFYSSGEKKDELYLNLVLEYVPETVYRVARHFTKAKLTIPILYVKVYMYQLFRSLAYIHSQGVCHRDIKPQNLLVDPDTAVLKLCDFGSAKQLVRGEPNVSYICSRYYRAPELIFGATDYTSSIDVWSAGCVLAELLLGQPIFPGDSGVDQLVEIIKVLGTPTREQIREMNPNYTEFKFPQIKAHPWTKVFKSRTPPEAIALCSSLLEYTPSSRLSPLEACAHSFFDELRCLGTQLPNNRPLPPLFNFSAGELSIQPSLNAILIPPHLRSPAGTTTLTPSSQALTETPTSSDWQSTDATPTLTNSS
Active and inactive are the calls of the source.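 The calls were made as follows: active = more than half of replicate measurements showing over 20% loss of kinase signal relative to plate controls; inconclusive = some but at most half of replicates over 20% loss; inactive = no replicate over 20% signal loss.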
Select the correct class. Options are active, inactive and nothing else.

Hey, what did the test say about `CCOc1nc(NCCN2CCOCC2)nc(Nc2ccc([N+](=O)[O-])cc2)n1` ? inactive

Field: outcome | Entry: `O=c1cc[nH]c2ccc(OC(F)(F)F)cc12` inactive

Which outcome did this test record for the compound `COc1cc(C(=O)Oc2cc(C)cc(C)c2)cc(OC)c1OC` ? inactive

Outcome? `Nc1ccccc1-c1nc2ccccc2[nH]1` inactive

I'd appreciate the recorded outcome for `Clc1ccc(-c2nnc(SCc3nc(-c4ccccc4)no3)o2)cc1` from this test. inactive

Field: outcome | Entry: `O=C(Nc1ccccc1-c1nnc(SCc2ccc(Cl)cc2)o1)c1ccccc1` inactive

Could you kindly confirm the outcome this assay logged for CC1CCC2(CC1)NC(=O)N(CC(=O)Nc1ccc(C(N)=O)cc1)C2=O (stereo unspecified) ? inactive

I'd appreciate the recorded outcome for `O=S(=O)(c1cccs1)N1CCN(c2ccnc3cc(Cl)ccc23)CC1` from this test. inactive

What call does the record list for Cc1c(O)ccc2c3c(c(=O)oc12)CCC(C)C3 (stereo unspecified) ? inactive

Write down the call the test reported for this compound. Item: `COc1ccccc1NC(=O)c1ccc(C(=O)c2ccccc2)o1` inactive

// param item: `CCCNC(=O)OCCC12CC3CC(CC(C3)C1)C2` ; yields the recorded call inactive

In this assay, the call recorded for `Cc1cc(=O)[nH]c(SCC(=O)O)c1C#N` was what? inactive

Returns: the outcome recorded for `Cc1cc(=O)[nH]c2ccccc12` in this assay. inactive

// outcome(item) with item = `c1ccc(-c2csc3ncnc(NCc4ccccn4)c23)cc1` active

Could you check what this test reported for `O=C(O)c1ccc2c(c1)C(=O)N(CCCCCCCN1C(=O)c3ccc(C(=O)O)cc3C1=O)C2=O` ? active

So what was the verdict on `CCc1ccc(/C=c2\s/c(=C\C(=O)C(C)(C)C)[nH]c2=O)cc1` in this test? inactive

Entry source: PubChem BioAssay AID463203
